The values you see were collected from patent US20210040232A1.

# Target Or Test System: T1, human CTLA-4 (amino acids M1-N223) on stably transfected VI-fibroblast cells (human, UniProt P16410 36-223)
# T1 construct: also called VI-fibroblast/hCTLA-4
# T1 sequence (P16410 36-223 limits assumed): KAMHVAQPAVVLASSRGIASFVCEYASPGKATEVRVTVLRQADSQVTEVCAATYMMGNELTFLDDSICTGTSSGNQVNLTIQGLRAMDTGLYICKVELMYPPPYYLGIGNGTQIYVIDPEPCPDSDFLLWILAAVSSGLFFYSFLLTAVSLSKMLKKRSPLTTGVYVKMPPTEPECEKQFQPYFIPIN
# Assay Summary: ECL cell binding, VI-fibroblast/hCTLA-4 cells;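 further: antibodies bound to the cells on carbon electrode plates, detected via SULFO-TAG anti-IgG secondary (1 h, RT), electrochemiluminescence read as RLU over a concentration range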
Result Type: ratio of RLU signal to parental VI-fibroblast at 0.6 nM Ab (ratio)
Answers are plain numbers, in ratio.

Solved entries:
Binder	Numeric Result
H2M20386N (antibody, mouse IgG2, V domains shown, hybridoma antibody, human variable domains, mouse IgG2 Fc (H2M)) VH: QVQLVESGGGVVQPGRSLRLSCAASGFTVNRYGIHWVRQAPGKGLEWVAVTWYDGRNKYFADSVKGRFSFSRDSSTNTLYLQMNSLRAEDTAVYYCARGGLFGYFDYWGQGTLVTVSS VL: EIVLTQSPDTLSLSPGERATLSCRASQSVAGSYLAWYQQKPGQAPRLLIYGASSRATGIPDRFSGSGSGTDFTLTISRLEPEDFAVYYCQQYGTSPWTFGQGTKVEIT	3
H1M20372N (antibody, mouse IgG1, V domains shown, hybridoma antibody, human variable domains, mouse IgG1 Fc (H1M)) VH: EVQLVESGGGLVQPGRSLRLSCAGTGFIFDDYAMHWVRQAPGKGLEWVSGISWNSNSLGYADSVKGRFTISRDNAKKSLYLQMSSLRAEDTALYYCVKDVTRLELRGFLDYWGQGTQVTVSS VL: DIQMTQSPSSLSASVGDRVTITCRASQDIRNDLGWHQQKSGKAPKSLIYAASSLQSGAPSRFSGSGSGTEFTLTISSLQPEDSATYYCLQQNSYPPTFGQGTKVEIK	14

Then this binder:
Q: Bench note: what ratio of RLU signal to parental VI-fibroblast at 0.6 nM Ab did H2M20385N (antibody, mouse IgG2, V domains shown, hybridoma antibody, human variable domains, mouse IgG2 Fc (H2M)) VH: QVQLVQSGAEVKKPGASVKVSCKTSGYTFTNNGISWVRQVPGQGLEWMGWISPYNGNTKYAQKFQGRVTMTTDTSTTTVYMDVRSLRSDDTAVYFCARDGPITISYFGMDVWGQGTTVTVSS VL: DIQMTQSPSSLSASVGDRVTITCRASQSISTYLNWYQQKPGKAPKLLIYAASTLQSGVPSRFGGSGSGTDFTLTVSSLQPEDFATYYCQQSYSTPPITFGQGTRLEIN show?
Ans: 8
